Measured glycan array binding signal (z-score), listed per entry for reference.
target: Fuc(a1-2)[Gal(a1-3)]Gal(b1-4)GlcNAc(b1-6)GalNAc; test: glycan array binding signal (z-score within array); higher = stronger binding; settings: glycan notation: IUPAC condensed, linker removed
Only a selection was taken, and the strongest signals are over-represented in it overall.

binder	glycan array binding signal (z-score)
PpFlo1 (Pichia pastoris) (protein) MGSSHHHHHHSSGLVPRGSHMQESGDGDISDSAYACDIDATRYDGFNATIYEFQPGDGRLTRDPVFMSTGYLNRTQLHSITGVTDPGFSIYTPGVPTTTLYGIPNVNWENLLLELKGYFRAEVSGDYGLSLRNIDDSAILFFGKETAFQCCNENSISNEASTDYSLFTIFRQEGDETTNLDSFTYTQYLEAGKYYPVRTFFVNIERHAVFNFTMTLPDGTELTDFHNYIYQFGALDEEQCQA	-0.228
pTFF2 (Sus scrofa), P01359 (protein) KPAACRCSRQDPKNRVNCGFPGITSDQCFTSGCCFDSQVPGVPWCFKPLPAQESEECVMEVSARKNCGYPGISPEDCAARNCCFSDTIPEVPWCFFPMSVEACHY	-0.303
LSL-150 (Laetiporus sulphureus), Q7Z8V1 (protein) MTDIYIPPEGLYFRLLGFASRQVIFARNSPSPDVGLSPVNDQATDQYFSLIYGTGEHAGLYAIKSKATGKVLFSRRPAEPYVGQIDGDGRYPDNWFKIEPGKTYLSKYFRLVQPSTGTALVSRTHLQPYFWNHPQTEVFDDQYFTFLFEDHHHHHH	-0.207
